# EXPERIMENT DESCRIPTION: yeast display, Sf9 membrane polyspecificity reagent, FACS + sequencing; frameworks hold sequencing errors
VALUE TYPE: polyreactivity (PSR sort gate)

QVQLVESGGGLVQAGGSLRLSCAASGFIIGGNPMGWYRQAPGKVRELVAAITGGGSTYYADSVKGRFTISRENAKNTVYLQMNSLKPEDTAVYYCNAGRVLRLAYNYWGQGTQVTVSS low polyreactivity
HVQLVESGGGLVQAGGSLRLSCAASGSIFNSNGMGWYRQATGKERELVAAITGGGSTNYADSVKGRFTISRDNAKNTVYLQMNSLKPEDTAVYYCAARPLRTDWAYYYWGQGTQVTVSS low polyreactivity
QVQLVESGGGLVQAGGSLRLSCAASGSTYRYTMGWYRQAPGKERELVAAITGSAGRTYYADSVKGRFTISRDNAKNTVYLQMNSLKPEDTAVYYCNKVRPRKFWDYYYWGQGTQVTVSS high polyreactivity
QVQLVESGGGLVQAGGSLRLSCAASGSIFGSYAMGWYRQAPGKERELVAAISKSGGNTYYADSVKGRFTISRDNAKNTVYLQMNSLKPEDTAVYYCAAYGFYRWRGYDYWGQGTQVTVSS high polyreactivity
QVQLVESGGGLVQAGGSIRLSCAASGRTFYPNAMGWYRQAPGKERELVAVISSGGNTDYADSVKGRFTISRDNAKNTVYLQMYSLKPEDTAVYYCNTDTTVVSHYRSYWWGAGYDYWGQGTQVTVSS low polyreactivity
QVQLVESGGGLVQAGGSLRLSCAASGPNFTKYAMGWYRPAPGKERELVAGISSRGTSTYYADSVKGRFTISRDNAKNTVYLQMNSLKPEDTAVYYCNKDSKSRFTYDYWGQGTQVTVSS high polyreactivity
QVQIVESGGGLVQAGGSLRLSCDASGSIFNYNAMGWYRQAPGKEREFVAAINQGGTSTYYADSVKGRFTISRDNAKNTVYLQINSLKPEDTAVYYCAALITVYRGSYEYWGQGTQVTVSS low polyreactivity
QVQLVESGGGLVQAGGSLRLSCAASGFTFARNAMGWYRQATGKERELVASITQRGGSTNYADSVKVRFTISRDNAQNTVYLQMNSLKPEDTAVYYCNKASQLYYIQGTYSYGYWGQGTQVTVSS low polyreactivity
QVQLVESGGGLVQAGGSLRLSCDASGFTFTAYAMGSYRQAPGKERELVAAINWSGSRTYYADSVKGRFTISRDNAKNTVYLQMNSLNPEDTAVYYCAAGWTSSRYDYWGQGTQVTVSS high polyreactivity
QVQLVESGGGLVQAGGSLRLSCAASGSTFPYYAMGWYRQAPGKERELVAAITSSASTYYADSVKGRFTISRDNAKNTVYLQMNSLKPEDTAVYYCAVRSPYRLSRWRVGYWGQGTQVTVSS high polyreactivity
QVQLVESGGGLVQAGGSLRLSCAASGSTFTGYTMGWYRQAPGKERELVAAISRRGTSTYYADSVKGRFTISRDNAKNTVYLQMNSLKPEDTAVYYCAAYQGQKGYDYWGQGTQVTVSS high polyreactivity

* * *

# EXPERIMENT DESCRIPTION: yeast display, Sf9 membrane polyspecificity reagent, FACS + sequencing; frameworks hold sequencing errors
VALUE TYPE: polyreactivity (PSR sort gate)

QVQLVESGGGLVQAGGSLRLSCAASGILFYLNAMGWYRQAPGKERELVASISTGGGTNYADSVKGRFTISRDYAKNTVYLQMNSLKPEDTAFYYCAAKRRNTYTLYYYWGQGTQVTVSS high polyreactivity
QDQLVESGGGLVQAGGSLRLSCAASGSIFSGYAMGWYRQPPGKERELVAAISRRGTSTYYADSVKGRFTISRDNAKNTVYLQMNSLKPEDTAFYYCAATYGGRQSYGGFDYWGQGTQVTVSS high polyreactivity
QVQLRESGAGGRQPAPELRGERQYFYWSADGLVSQPPGKEREFVAGIDRGTITNYADSVRGRFTISRDNAKNTVYLQMNSLKPEDTAVYYCNAEYRRRPKLGDEDEYWGHGTQVTVSS high polyreactivity
QVHLVESGGCLVQAGGTLRLSCAATGSIFYNYDMRWYRQAPGKEREFVAAITWSGTSTYYADSVKGRFTISRDNAKNTVYLQMNSLKPEDSAVYYCNALVRRRPGYIRYDYWGQGTQVTVSS low polyreactivity
QVQLVESGGVLVQEGGSLRLSCAASVSIFSRNAMGSYRQAPGKERELVAAISYSGGSTYYADSVKGRLTISRDNAKNTVYLQMNSLKPEDTEVYYCAAYGHHFQGDYNYWGQGTQVTVSS low polyreactivity
QVQLVESGGGLVQAGGSLRLSCAASGGICRVYAMGWYRQAPGKERELVAAISRSGSSTYYADSVKGRFTISRDNAKNTVYLQMNSLKPEDTAVYYCNAYSQYWLGNNYWGQGTQVTVSS high polyreactivity
QVQLVESGGGLVQAGGSLRLSCAASGFIFYRYAMGWYRQAPGKERELVAAISWSGGTTYYADSVKGRFTISRDNAKNTVYLQMNSLKPEDTAVYYCAARSVPSPERGFYYWGQGTQVTVSS high polyreactivity
QDQIVDSRGVLVQEGGSLGLSCAASGLTIYSYAMGFSRQAPRKERELVATITNGDTTTYAETVKARFTISRDNAKNNVIFQFNILKPEDTAVYYCAQHISPGYDEYDYWGQGTQVTVSS low polyreactivity
QVQLVESGGGLVQAGGSLRLSCAASGRIFDDNAMGWYRQAPGKERELVAAITGPDDSTDYADSVKGRFTISRDNAKNTVYLQMNSLKPEDTAVYYCAKDAGYWYYWNGYWGQGTQVTVSS high polyreactivity
QVQLVESGGGLVQAGGSLLLSCAASGLTFTDNAMGWSRQAPGKERELVAAISQSGGRTFYADSVKGRFTISRDNAKNTVYLQINSLKPEDPAVYYCNSRRGSVAKYGYLGQGTQVTVSS high polyreactivity
QVQLVESGGGLVQAGGSLRLSCAASGFTFAVNAMGWYRQAPGKERELVAAISKSGGRTYYADSVKGRFTISRDNAKNTVYLQMNSLKPEDTAVYYCAADGPGYTYDYWGQGTQVTVSS high polyreactivity

* * *

# EXPERIMENT DESCRIPTION: yeast display, Sf9 membrane polyspecificity reagent, FACS + sequencing; frameworks hold sequencing errors
VALUE TYPE: polyreactivity (PSR sort gate)

QVQLVESGGGLVQAGGSLRLSCAASGIFTYNAMGWYRQAPGKERELVASITRGGSTNYADSVKGRFTISRDNAKNTVYLQMNSLKPEDTAVYYCAARVRVYSGWLYNYWGQGTQVTVSS high polyreactivity
QVQLVESGGGLVQAGGSLRLSCAASGSIFYYNYMGWYRQAPGKERELVATITNGGGTNYADSVKGRFTISRDNAKNTVYLQMNSLKPEDTAVYYCARDVWSPDYLYDYWGQGTQVTVSS low polyreactivity
QVQLVESGGGLVQAGGSLRLSCAASGSTFTWYTMGWYRQAPGKERELVAAISSSGGSTYYADSVKGRFTISRDNAKNTVYLQMNSLKPEDTAVYYCARRFPSPLYTRYDYWGQGTQVTVSS high polyreactivity
QVQIVESGGGLVQAGGSLRLSCAASGSTFNRNAMGWNRQATGKERELVAAITRSASSTYYADSVKGRFTISRDNAKNTVYLQMNSLKPEDTAVYYCAVEYVAYLYRMDYWGQGTQVTVSS high polyreactivity
QVQLVESGGGLVQAGGSLRLSCADSGFISGGNDMGWNRQAPGKEREFVAAIDNTGSTYYADSVKGRFTISRDNAKNTVYLQMNSLKPEDSAVYYCNAEVSEDYVDNDFWGQGTQVTVSS low polyreactivity
QVQLVESGGGLVQAGGSLRLSCAASGRIFWINAMGWYRQAPGKERELVAAISWRGDSTYYADSVKGRFTISRDNAKNTVYLQMNSLKPEDTAVYYCAAETRYLYDYWGQGSQVTVSS high polyreactivity
QVQLVESGGGLVQAGGSLRLSCAASGSTFVLYAMGWYRQAPGKERELVAVISWSGGSTYYADSVKGRFTISRDNAKNTVYLQMNSLKPEDTAVYYCAKRYRVSYYPYADPYGYWGQGTQVTVSS low polyreactivity
QVQLVESGGGLVQAGGSLRLSCAASGRTIRWNAMGWYRPAPGKERELVAAITSRGGSTYYADSVKGRFTISRDNAKNTVYLQMNSLKPEDTAVYYCAARRRSAQSGSYNHWGQGTQVTVSS high polyreactivity
QVQLVESGGVLVQAGGSLRLTCAASGFTFSRNTMGWYRQAPGKERELVAAIDSTGGSTYYADSVKGRFTISRDNAKNTVYLQMNSLKPEDTAVYYCATVLPDGRVWYEGYYWGQGTQVTVSS low polyreactivity
QVQLVESGGGLVQAGRSLRLTCAASGFTFADNTMGWYRQAPGKDRELVAAINDAGGTNYADSVKGRFTISRDNEKNTVYLQMNSLKAEDTAVYYCAADGRIYLTYHEMEYWGQGTQVTVSS low polyreactivity
QVQLVESGGGLVQAGGSLRLSCAASGFILRRYTMGWYRQAPGKEREFVAGISWRGGSTYYADSVKGRFTISRDNAKNTVYLQMNSLKPEDTAVYYCAAETYQLTWVLYYYWGQGTQVTVSS high polyreactivity
